For each entry below, report its GI50 value.
test system: SK-MEL-2; test: NCI tumour cell line growth inhibition, 48 h
Calls of active or inactive are those of the source. Cut-off read from the data, not from the text of the source: active = GI50 up to about 1.1 µM and inactive = higher.

compound: c1ccc(C(OCCN2CC3CCC(C2)N3)c2ccccc2)cc1
target: SK-MEL-2
GI50: 76.7 µM (inactive)

State the recorded GI50 for every item in the following list.
1. COc1cc(C(O)C(=O)c2cnc3cc([N+](=O)[O-])ccc3n2)ccc1O (stereo not given)
2. O=C(O)c1cc(C(=O)O)cc(N2C(=O)c3ccccc3C2=O)c1

["> 100 µM (inactive)", "> 100 µM (inactive)"]

====

For each entry below, report its GI50 value.
system: 786-0; assay: NCI tumour cell line growth inhibition, 48 h
Calls of active or inactive are those of the source. Cut-off read from the data, not from the text of the source: active = GI50 up to about 1.1 µM and inactive = higher.

compound: CCN(C(=O)N[C@H](C(=O)N[C@@H](C)C(=O)OC)C(C)C)c1ccccc1
GI50: 27.3 µM (inactive)
//
compound: CCCCCCc1ccc(CCCCCCCC(=O)O)o1
GI50: > 100 µM (inactive)
//
compound: O=c1c(-c2ccccc2)nnc2n(Cc3ccccc3)c3ccccc3n12
GI50: > 100 µM (inactive)

State the recorded GI50 for every item in the following list.
1. c1ccc(C(OCCN2CC3CCC(C2)N3)c2ccccc2)cc1
2. O=c1c(-c2cccc3ccccc23)c(-c2cccc3ccccc23)c1=O
3. Cc1nc2ccc(Br)cc2c(=O)n1-c1ccc(N)cc1
4. NNC(=O)C(=O)N/N=C1\CCC(=O)CC1C(=O)CCC(=O)Nc1ccc(Cl)cc1 (stereo not drawn)

["41 µM (inactive)", "0.535 µM (active)", "> 100 µM (inactive)", "> 100 µM (inactive)"]

State the recorded GI50 for every item in the following list.
1. O=[N+]([O-])c1cccc2nnccc12
2. COc1cc2c(cc1OCCCCOc1cc3nc(C)nc(Cl)c3cc1OC)N=C[C@@H]1CCCN1C2=O
3. O=C1CCC2(CC1)SCCCS2
4. COc1ccc(-c2cc(O)c3ccc(F)cc3n2)cc1

["12.6 µM (inactive)", "3.12 µM (inactive)", "> 100 µM (inactive)", "> 100 µM (inactive)"]

State the recorded GI50 for every item in the following list.
1. Cc1nc(-n2nc(-c3ccccc3)cc2-c2ccccc2)sc1C(=O)/C=C/c1ccc([N+](=O)[O-])cc1
2. CC(=O)Nc1ccc(-c2nc3cc(Cl)ccc3o2)cc1

1: 13 µM (inactive); 2: > 50 µM (inactive)

State the recorded GI50 for every item in the following list.
1. CCOC(=O)C(c1c[nH]c2ccccc12)(c1c[nH]c2ccccc12)c1c[nH]c2ccccc12
2. Cc1cc(Cl)cc2c1NC(=O)C2(O)CC(=O)c1ccc(Br)cc1 (stereo not drawn)
3. O=C/C(=C(/Br)I)c1ccccc1
4. O=C1c2cc(Cl)ccc2N=C(NC2CCCC2)C2CSCN12 (stereo not drawn)
5. C/C(=N\N)C(CN1CCOCC1)C(c1ccccc1)c1c(O)c2ccccc2oc1=O (stereo not drawn)
6. O=P1(N(CCCl)CCCl)Oc2ccc(Cl)cc2Sc2c(ccc(Cl)c2Cl)O1 (stereo not drawn)
7. CCCCc1c(OC)cc(O)c2c1C(=O)c1[nH]c(C(=O)O)c(O)c(=O)c1C2=O

1. 44.5 µM (inactive)
2. 38.2 µM (inactive)
3. 2.54 µM (inactive)
4. > 100 µM (inactive)
5. > 95.1 µM (inactive)
6. 8.13 µM (inactive)
7. 1.62 µM (inactive)

State the recorded GI50 for every item in the following list.
1. C=C(Br)CNC(=O)CCC(=O)NCC(=C)Br
2. Cc1c(-c2ccccc2)c(C#N)c2nnn(-c3ccc([N+](=O)[O-])cc3)c(=O)n12
3. NC(=O)OCC(COc1ccc(Cl)cc1)OC(=O)c1ccccc1Cl (stereo not drawn)

1: > 100 µM (inactive); 2: 5.14 µM (inactive); 3: 19.4 µM (inactive)
